Biological target: Cathepsin G (Homo sapiens)
Sequence (whole entry): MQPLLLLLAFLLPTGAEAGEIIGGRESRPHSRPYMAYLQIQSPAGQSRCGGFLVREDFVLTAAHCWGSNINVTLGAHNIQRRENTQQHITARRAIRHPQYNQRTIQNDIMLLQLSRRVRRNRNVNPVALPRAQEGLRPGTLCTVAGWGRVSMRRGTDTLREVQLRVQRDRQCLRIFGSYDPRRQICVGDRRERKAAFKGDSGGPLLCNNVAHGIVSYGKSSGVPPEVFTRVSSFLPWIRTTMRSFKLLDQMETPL
Test: Inhibition of cathepsin G assessed as association equilibrium constant relative to [Phe5]SFTI-1
Bridge positions count the residues as written; N and C are the ends. Square brackets hold non-standard residues; d marks the D form. Peptide text beside a SMILES is read from it. Phe(4-NH2) = Nc1ccc(C[C@H](N)C(=O)O)cc1; Phe(4-F) = N[C@@H](Cc1ccc(F)cc1)C(=O)O; Phe(4-Me) = Cc1ccc(C[C@H](N)C(=O)O)cc1
Ratio values for the molecules below.

Sample answers from the record:
>  <MOLECULE>
CC[C@H](C)[C@@H]1NC(=O)[C@@H]2CCCN2C(=O)[C@@H]2CCCN2C(=O)[C@H]([C@@H](C)CC)NC(=O)[C@H](CO)NC(=O)[C@H](Cc2ccc(C)cc2)NC(=O)[C@H]([C@@H](C)O)NC(=O)[C@@H](NC(=O)[C@H](CCCNC(=N)N)NC(=O)CN)CSSC[C@@H](C(=O)N[C@@H](Cc2ccccc2)C(=O)N2CCC[C@H]2C(=O)N[C@@H](CC(=O)O)C(=O)O)NC1=O (H-GRCT[Phe(4-Me)]SIPPICFPD-OH; disulfide 3-11)

>  <RECORDED_METRIC>
Ratio

>  <RESULT>
0.76

$$$$
>  <MOLECULE>
CC[C@H](C)[C@@H]1NC(=O)[C@@H]2CCCN2C(=O)[C@@H]2CCCN2C(=O)[C@H]([C@@H](C)CC)NC(=O)[C@H](CO)NC(=O)[C@H](CCCCN)NC(=O)[C@H]([C@@H](C)O)NC(=O)[C@@H]2CSSC[C@H](NC1=O)C(=O)N[C@@H](Cc1ccccc1)C(=O)N1CCC[C@H]1C(=O)N[C@@H](CC(=O)O)C(=O)NCC(=O)N[C@@H](CCCNC(=N)N)C(=O)N2

>  <RECORDED_METRIC>
Ratio

>  <RESULT>
1.54

$$$$
>  <MOLECULE>
CC[C@H](C)[C@@H]1NC(=O)[C@@H]2CCCN2C(=O)[C@@H]2CCCN2C(=O)[C@H]([C@@H](C)CC)NC(=O)[C@H](CO)NC(=O)[C@H](Cc2ccc(F)cc2)NC(=O)[C@H]([C@@H](C)O)NC(=O)[C@@H](NC(=O)[C@H](CCCNC(=N)N)NC(=O)CN)CSSC[C@@H](C(=O)N[C@@H](Cc2ccccc2)C(=O)N2CCC[C@H]2C(=O)N[C@@H](CC(=O)O)C(=O)O)NC1=O (H-GRCT[Phe(4-F)]SIPPICFPD-OH; disulfide 3-11)

>  <RECORDED_METRIC>
Ratio

>  <RESULT>
1.02

$$$$

-- ask # query: Ratio of entry CC[C@H](C)[C@@H]1NC(=O)[C@@H]2CCCN2C(=O)[C@@H]2CCCN2C(=O)[C@H]([C@@H](C)CC)NC(=O)[C@H](CO)NC(=O)[C@H](Cc2ccc(N)cc2)NC(=O)[C@H]([C@@H](C)O)NC(=O)[C@@H](NC(=O)[C@H](CCCNC(=N)N)NC(=O)CN)CSSC[C@@H](C(=O)N[C@@H](Cc2ccccc2)C(=O)N2CCC[C@H]2C(=O)N[C@@H](CC(=O)O)C(=O)O)NC1=O (H-GRCT[Phe(4-NH2)]SIPPICFPD-OH; disulfide 3-11)
-- reply 0.97
